assay setup: in methanol, 313.15 K
measured endpoint: solubility (mole fraction)
Write the number on its own, no unit after it.

Q: Recorded solubility (mole fraction) for Cc1cnc(N)s1 , please?
Result: 0.169

---

assay setup: in acetonitrile, 308.15 K
measured endpoint: solubility (mole fraction)
Write the number on its own, no unit after it.

Q: Recorded solubility (mole fraction) for Cc1cnc(N)s1 , please?
Result: 0.0838

---

assay setup: in cyclohexane, 293.15 K
measured endpoint: solubility (mole fraction)
Write the number on its own, no unit after it.

Q: Recorded solubility (mole fraction) for Cc1cnc(N)s1 , please?
Result: 0.000736

---

assay setup: in ethanol, 278.15 K
measured endpoint: solubility (mole fraction)
Write the number on its own, no unit after it.

Q: Recorded solubility (mole fraction) for Cc1cnc(N)s1 , please?
Result: 0.0486

---

assay setup: in 1,4-dioxane, 280.65 K
measured endpoint: solubility (mole fraction)
Write the number on its own, no unit after it.

Q: Recorded solubility (mole fraction) for Cc1cnc(N)s1 , please?
Result: 0.0431

---

assay setup: in 1,4-dioxane, 300.65 K
measured endpoint: solubility (mole fraction)
Write the number on its own, no unit after it.

Q: Recorded solubility (mole fraction) for Cc1cnc(N)s1 , please?
Result: 0.0881

---

assay setup: in ethanol, 303.15 K
measured endpoint: solubility (mole fraction)

Q: Recorded solubility (mole fraction) for Cc1cnc(N)s1 , please?
Result: 0.112

---

assay setup: in toluene, 305.65 K
measured endpoint: solubility (mole fraction)
Write the number on its own, no unit after it.

Q: Recorded solubility (mole fraction) for Cc1cnc(N)s1 , please?
Result: 0.0348

---

assay setup: in methanol, 290.65 K
measured endpoint: solubility (mole fraction)
Write the number on its own, no unit after it.

Q: Recorded solubility (mole fraction) for Cc1cnc(N)s1 , please?
Result: 0.086

---

assay setup: in ethanol, 290.65 K
measured endpoint: solubility (mole fraction)
Write the number on its own, no unit after it.

Q: Recorded solubility (mole fraction) for Cc1cnc(N)s1 , please?
Result: 0.0736

---

assay setup: in toluene, 300.65 K
measured endpoint: solubility (mole fraction)
Write the number on its own, no unit after it.

Q: Recorded solubility (mole fraction) for Cc1cnc(N)s1 , please?
Result: 0.028

---

assay setup: in acetonitrile, 313.15 K
measured endpoint: solubility (mole fraction)
Write the number on its own, no unit after it.

Q: Recorded solubility (mole fraction) for Cc1cnc(N)s1 , please?
Result: 0.1

---

assay setup: in ethyl acetate, 288.15 K
measured endpoint: solubility (mole fraction)
Write the number on its own, no unit after it.

Q: Recorded solubility (mole fraction) for Cc1cnc(N)s1 , please?
Result: 0.0726

---

assay setup: in ethanol, 283.15 K
measured endpoint: solubility (mole fraction)
Write the number on its own, no unit after it.

Q: Recorded solubility (mole fraction) for Cc1cnc(N)s1 , please?
Result: 0.0574

---

assay setup: in acetone, 278.15 K
measured endpoint: solubility (mole fraction)
Write the number on its own, no unit after it.

Q: Recorded solubility (mole fraction) for Cc1cnc(N)s1 , please?
Result: 0.0493

---

assay setup: in isopropanol, 293.15 K
measured endpoint: solubility (mole fraction)
Write the number on its own, no unit after it.

Q: Recorded solubility (mole fraction) for Cc1cnc(N)s1 , please?
Result: 0.0594

---

assay setup: in methanol, 285.65 K
measured endpoint: solubility (mole fraction)
Write the number on its own, no unit after it.

Q: Recorded solubility (mole fraction) for Cc1cnc(N)s1 , please?
Result: 0.0742

---

assay setup: in isopropanol, 285.65 K
measured endpoint: solubility (mole fraction)
Write the number on its own, no unit after it.

Q: Recorded solubility (mole fraction) for Cc1cnc(N)s1 , please?
Result: 0.0452

---

assay setup: in n-propanol, 285.65 K
measured endpoint: solubility (mole fraction)
Write the number on its own, no unit after it.

Q: Recorded solubility (mole fraction) for Cc1cnc(N)s1 , please?
Result: 0.0482

---

assay setup: in acetone, 293.15 K
measured endpoint: solubility (mole fraction)
Write the number on its own, no unit after it.

Q: Recorded solubility (mole fraction) for Cc1cnc(N)s1 , please?
Result: 0.0825

---

assay setup: in ethyl acetate, 313.15 K
measured endpoint: solubility (mole fraction)
Write the number on its own, no unit after it.

Q: Recorded solubility (mole fraction) for Cc1cnc(N)s1 , please?
Result: 0.164

---

assay setup: in cyclohexane, 283.15 K
measured endpoint: solubility (mole fraction)
Write the number on its own, no unit after it.

Q: Recorded solubility (mole fraction) for Cc1cnc(N)s1 , please?
Result: 0.000429

---

assay setup: in isopropanol, 298.15 K
measured endpoint: solubility (mole fraction)
Write the number on its own, no unit after it.

Q: Recorded solubility (mole fraction) for Cc1cnc(N)s1 , please?
Result: 0.0709

---

assay setup: in ethanol, 288.15 K
measured endpoint: solubility (mole fraction)
Write the number on its own, no unit after it.

Q: Recorded solubility (mole fraction) for Cc1cnc(N)s1 , please?
Result: 0.0677

---

assay setup: in isopropanol, 300.65 K
measured endpoint: solubility (mole fraction)

Q: Recorded solubility (mole fraction) for Cc1cnc(N)s1 , please?
Result: 0.0775

---

assay setup: in acetonitrile, 278.15 K
measured endpoint: solubility (mole fraction)
Write the number on its own, no unit after it.

Q: Recorded solubility (mole fraction) for Cc1cnc(N)s1 , please?
Result: 0.0284

---

assay setup: in n-propanol, 288.15 K
measured endpoint: solubility (mole fraction)
Write the number on its own, no unit after it.

Q: Recorded solubility (mole fraction) for Cc1cnc(N)s1 , please?
Result: 0.0526

---

assay setup: in acetone, 295.65 K
measured endpoint: solubility (mole fraction)
Write the number on its own, no unit after it.

Q: Recorded solubility (mole fraction) for Cc1cnc(N)s1 , please?
Result: 0.09

---

assay setup: in acetonitrile, 298.15 K
measured endpoint: solubility (mole fraction)

Q: Recorded solubility (mole fraction) for Cc1cnc(N)s1 , please?
Result: 0.0586

---

assay setup: in methanol, 308.15 K
measured endpoint: solubility (mole fraction)
Write the number on its own, no unit after it.

Q: Recorded solubility (mole fraction) for Cc1cnc(N)s1 , please?
Result: 0.146

---

assay setup: in 1,4-dioxane, 290.65 K
measured endpoint: solubility (mole fraction)
Write the number on its own, no unit after it.

Q: Recorded solubility (mole fraction) for Cc1cnc(N)s1 , please?
Result: 0.0618

---

assay setup: in ethanol, 310.65 K
measured endpoint: solubility (mole fraction)
Write the number on its own, no unit after it.

Q: Recorded solubility (mole fraction) for Cc1cnc(N)s1 , please?
Result: 0.144

---

assay setup: in methanol, 295.65 K
measured endpoint: solubility (mole fraction)
Write the number on its own, no unit after it.

Q: Recorded solubility (mole fraction) for Cc1cnc(N)s1 , please?
Result: 0.0999

---

assay setup: in methanol, 300.65 K
measured endpoint: solubility (mole fraction)
Write the number on its own, no unit after it.

Q: Recorded solubility (mole fraction) for Cc1cnc(N)s1 , please?
Result: 0.116

---

assay setup: in acetonitrile, 283.15 K
measured endpoint: solubility (mole fraction)
Write the number on its own, no unit after it.

Q: Recorded solubility (mole fraction) for Cc1cnc(N)s1 , please?
Result: 0.0341

---

assay setup: in ethyl acetate, 280.65 K
measured endpoint: solubility (mole fraction)

Q: Recorded solubility (mole fraction) for Cc1cnc(N)s1 , please?
Result: 0.0567

---

assay setup: in 1,4-dioxane, 288.15 K
measured endpoint: solubility (mole fraction)

Q: Recorded solubility (mole fraction) for Cc1cnc(N)s1 , please?
Result: 0.0563

---

assay setup: in acetone, 280.65 K
measured endpoint: solubility (mole fraction)
Write the number on its own, no unit after it.

Q: Recorded solubility (mole fraction) for Cc1cnc(N)s1 , please?
Result: 0.0535

---

assay setup: in ethyl acetate, 308.15 K
measured endpoint: solubility (mole fraction)

Q: Recorded solubility (mole fraction) for Cc1cnc(N)s1 , please?
Result: 0.14

---

assay setup: in toluene, 278.15 K
measured endpoint: solubility (mole fraction)
Write the number on its own, no unit after it.

Q: Recorded solubility (mole fraction) for Cc1cnc(N)s1 , please?
Result: 0.0109

---

assay setup: in toluene, 295.65 K
measured endpoint: solubility (mole fraction)
Write the number on its own, no unit after it.

Q: Recorded solubility (mole fraction) for Cc1cnc(N)s1 , please?
Result: 0.0225

---

assay setup: in isopropanol, 278.15 K
measured endpoint: solubility (mole fraction)

Q: Recorded solubility (mole fraction) for Cc1cnc(N)s1 , please?
Result: 0.0345

---

assay setup: in isopropanol, 295.65 K
measured endpoint: solubility (mole fraction)
Write the number on its own, no unit after it.

Q: Recorded solubility (mole fraction) for Cc1cnc(N)s1 , please?
Result: 0.0647

---

assay setup: in cyclohexane, 305.65 K
measured endpoint: solubility (mole fraction)
Write the number on its own, no unit after it.

Q: Recorded solubility (mole fraction) for Cc1cnc(N)s1 , please?
Result: 0.00138

---

assay setup: in isopropanol, 303.15 K
measured endpoint: solubility (mole fraction)
Write the number on its own, no unit after it.

Q: Recorded solubility (mole fraction) for Cc1cnc(N)s1 , please?
Result: 0.085

Hey, just so you know, these numbers are from BigSolDB 2.1.
